assay: Single-dose PK in dog; type: in vivo, male beagle dogs; settings: male, beagle, plasma, 5 mg/kg, PO, dose not given, 0.1% CMC/0.2% Tween, free base measured
REPORTED_PROPERTY: AUC(0-inf) (ng·h/mL)

- NC(=O)[C@H]1CCN(c2ncnc(N)c2F)C[C@@H]1N1CCC[C@@H](Nc2cc(Cl)cc(C(F)(F)F)c2)C1=O: 3520

---

assay: Single-dose PK in monkey; format: in vivo; conditions: male, cynomolgus monkey, plasma, 1 mg/kg, IV, dose 1, 70% PEG400/H2O, free base measured
REPORTED_PROPERTY: half-life (h)

* NC(=O)[C@H]1CCN(c2ncnc(N)c2F)C[C@@H]1N1CCC[C@@H](Nc2cc(Cl)cc(C(F)(F)F)c2)C1=O [Compound 2] | 1.9
